All figures here come from ChEMBL document CHEMBL3875203.

assay.info: Therapeutic index, ratio of HC50 for human RBC to MIC for methicillin-resistant Staphylococcus aureus USA300
condition.summary: human red blood cells, read-out: TI
Reported selectivity ratio by item:

Examples from the recorded data:
Prompt: What value of selectivity ratio has been recorded for this entry: `CCCC(CCC)(c1c[nH]c2cc(C3=NCCN3)ccc12)c1c[nH]c2cc(C3=NCCN3)ccc12.CS(=O)(=O)O.CS(=O)(=O)O`
Response: 48 to 96

Prompt: What value of selectivity ratio has been recorded for this entry: `CS(=O)(=O)O.CS(=O)(=O)O.NCc1ccc2c(C3(c4c[nH]c5cc(CN)ccc45)CCCCC3)c[nH]c2c1`
Response: 12 to 24

More entries:
Prompt: What value of selectivity ratio has been recorded for this entry: `CS(=O)(=O)O.CS(=O)(=O)O.Clc1ccc(C(c2c[nH]c3cc(C4=NCCN4)ccc23)c2c[nH]c3cc(C4=NCCN4)ccc23)cc1`
Response: 24 to 48

Prompt: What value of selectivity ratio has been recorded for this entry: `CS(=O)(=O)O.CS(=O)(=O)O.c1cc2c(C3(c4c[nH]c5cc(C6=NCCN6)ccc45)CCCCC3)c[nH]c2cc1C1=NCCN1`
Response: 24 to 48

Prompt: What value of selectivity ratio has been recorded for this entry: `Brc1cccc(Br)c1C(c1c[nH]c2cc(C3=NCCN3)ccc12)c1c[nH]c2cc(C3=NCCN3)ccc12.CS(=O)(=O)O.CS(=O)(=O)O`
Response: 24 to 48
